endpoint: melting point

Examples from the recorded data:
Cc1c(Br)c2c(c3c1C(c1ccc(C(C)C)cc1)CO3)CCC2 (centres undefined) | 127 to 128 °C
CCOC(=O)C(Cc1c[nH]c2ccccc12)(NC=O)C(=O)OCC | 179 to 180 °C
Cc1cc(C(=O)O)c(N)cc1Cl | 212 to 215 °C
Cc1noc(NS(=O)(=O)c2ccccc2-c2cc3ccccc3n2S(=O)(=O)c2ccccc2)c1C | 207 to 209 °C
CC1(C)CCc2c(-c3ccoc3)nc3sc4c(NCCc5c[nH]cn5)ncnc4c3c2C1 | 265 to 267 °C

**Query** Query: melting point; subject: COc1cc(-c2nc3ccccc3n2Cc2ccccc2F)cc(OC)c1OC
**Result** 154 °C

**Query** Here is the next compound: O=C(O)c1cnn2c(C(F)(F)F)cc(-c3ccc(F)c(F)c3)nc12
**Result** 274 °C

**Query** Here is the next compound: COC(=O)C(Oc1cc(OCc2ccc3ncoc3c2)ccc1C#N)c1ccccc1C (racemic)
**Result** 157 to 159 °C

**Query** Here is the next compound: O=C(Nc1ccc(-n2nc(C(F)(F)F)cc2C(F)(F)F)cc1)c1ccc(I)cc1
**Result** 196 to 198 °C
